test system: TK-10; experiment: NCI tumour cell line growth inhibition, 48 h
Active and inactive are the calls of the source. Rule as the data show it: active = GI50 up to about 1.1 µM and inactive = higher.
quantityKind: GI50

[
  {
    "compound": "Cc1cc(O)nc(NNC(C#N)c2cccc([N+](=O)[O-])c2)n1 (configuration not stated)",
    "assayResult": "> 100 µM (inactive)"
  },
  {
    "compound": "COc1cc(NS(C)(=O)=O)ccc1N1Cc2c[nH]c3ccc4nc(C)cc1c4c23",
    "assayResult": "> 100 µM (inactive)"
  },
  {
    "compound": "CCOC(=O)c1c(N2CCN(C)CC2)[nH]c(=O)c(C(c2c(Cl)cccc2Cl)c2c(O)c(C(=O)OCC)c(N3CCN(C)CC3)[nH]c2=O)c1O",
    "assayResult": "30.5 µM (inactive)"
  },
  {
    "compound": "COC(=O)c1cn(CCCCO)nn1",
    "assayResult": "> 100 µM (inactive)"
  },
  {
    "compound": "O=c1cc(NNc2cccc3ccccc23)[nH]c(=O)[nH]1",
    "assayResult": "19.7 µM (inactive)"
  },
  {
    "compound": "O=[N+]([O-])c1ccc(C2=Nn3c(nnc3-c3ccc(Cl)cc3)SC2)o1",
    "assayResult": "14.9 µM (inactive)"
  },
  {
    "compound": "COC(=O)c1c(O)ccc2c1c1c(n2-c2ccc(OC)cc2)C(=O)c2ccccc2C1=O",
    "assayResult": "12 µM (inactive)"
  },
  {
    "compound": "CCOc1ccccc1/N=N/c1ccc2oc(=O)c(C(C)=O)cc2c1",
    "assayResult": "30.5 µM (inactive)"
  },
  {
    "compound": "O=C(CCn1ccnc1[N+](=O)[O-])NCCCn1ccnc1[N+](=O)[O-]",
    "assayResult": "> 100 µM (inactive)"
  },
  {
    "compound": "CON(C)C(=O)C(C)NC(=O)OCc1ccccc1 (configuration not stated)",
    "assayResult": "> 100 µM (inactive)"
  },
  {
    "compound": "C=CC/N=C1\\N=C(C)C(C(=O)OCC)S1 (configuration not stated)",
    "assayResult": "> 100 µM (inactive)"
  },
  {
    "compound": "Cc1ccc(/C=C2\\CN(C)CC3=C2N=C(S)NC3c2ccc(C)cc2)cc1 (configuration not stated)",
    "assayResult": "0.341 µM (active)"
  },
  {
    "compound": "Clc1ccc(OCc2nnc3n2N=C(c2ccccc2)CS3)c(Cl)c1",
    "assayResult": "7.98 µM (inactive)"
  },
  {
    "compound": "C[N+](C)(C)C1=NNC2=Nc3ccccc3SC2=C1",
    "assayResult": "37.1 µM (inactive)"
  },
  {
    "compound": "CCOC1c2cc(C(C)C)c(O)c(O)c2[C@@]23CCCC(C)(C)C2C1OC3=O (some centres not stated)",
    "assayResult": "> 100 µM (inactive)"
  },
  {
    "compound": "CC1(C)OC(=S)N(c2ccccc2)C12C=Cc1ccccc1O2 (configuration not stated)",
    "assayResult": "> 100 µM (inactive)"
  },
  {
    "compound": "CC(C)(C)OC(=O)NC(Cc1ccc(OCc2ccccc2)cn1)C(=O)N1CCCCC1 (configuration not stated)",
    "assayResult": "37.1 µM (inactive)"
  },
  {
    "compound": "C#C[C@]1(O)[C@@H](CO)O[C@@H](n2ccc(=O)[nH]c2=O)[C@@H]1O",
    "assayResult": "0.413 µM (active)"
  },
  {
    "compound": "O=C(O)c1ccc([Se][Se]c2ccc(C(=O)O)cc2)cc1",
    "assayResult": "22.7 µM (inactive)"
  },
  {
    "compound": "Cc1sc(Cc2ccccc2)nc1-c1ccc(N)cc1",
    "assayResult": "47.5 µM (inactive)"
  },
  {
    "compound": "O=[N+]([O-])c1cc(-c2nnc(S)[nH]2)ccc1O",
    "assayResult": "> 100 µM (inactive)"
  },
  {
    "compound": "O=C(NCCCCNCCCNC(=O)c1cc(-c2ccccc2)nc2ccccc12)c1cc(-c2ccccc2)nc2ccccc12",
    "assayResult": "1.59 µM (inactive)"
  }
]
